Test system: U2OS
Experiment: Multiplex assay against U2OS
Type: toxicity, cell-based
Conditions: human, 24 h, 1 µM, compound concentration 1 uM, replicate 2
Assign Population Tubulin-Different-Phenotype (%) to each entry below.
Numbers only, in %.

Please state, for each entry, its recorded Population Tubulin-Different-Phenotype (%).
1. Cc1ccc2nc(NCCN)c3ncc(C)n3c2c1.O=C(O)C(F)(F)F.O=C(O)C(F)(F)F
2. S=C(NCCCc1c[nH]cn1)NCCCN(Cc1ccc(Cl)c(Cl)c1)c1ccc(Br)cn1

Ans.
[20, 20]

Each compound below has a recorded value; state its Population Tubulin-Different-Phenotype (%).
1. CN1CCC(=C2c3ccccc3CC(=O)c3sccc32)CC1.O=C(O)/C=C/C(=O)O [KETOTIFEN FUMARATE]
2. CCOc1cc(C(=O)N2CCC(N3CCN(C)CC3)CC2)ccc1Nc1ncc2c(n1)N(C1CCCC1)c1ccccc1C(=O)N2C
3. COC(=N)c1nc2ccc3ncnc(Nc4ccc(OC)cc4F)c3c2s1
4. Cc1cn(-c2cc(NC(=O)c3ccc(C)c(Nc4nccc(-c5cccnc5)n4)c3)cc(C(F)(F)F)c2)cn1
5. COc1cc(N2CCN(C)CC2)ccc1Nc1ncc2c(n1)N(C)c1ccccc1C(=O)N2C
6. COc1cc2ncnc(Nc3ccc(F)c(Cl)c3)c2cc1NC(=O)/C=C/CN1CCCCC1 [DACOMITINIB ANHYDROUS]
7. Cn1nc(C(F)(F)F)cc1-c1cnc(N2CCc3cc(S(=O)(=O)Nc4c(F)cc(Cl)cc4F)cc(N4CCCC4=O)c32)nc1
8. C=CCn1c(=O)c2cnc(Nc3ccc(N4CCN(C)CC4)cc3)nc2n1-c1cccc(C(C)(C)O)n1

Ans.
4
27
39
12
6
58
11
31

Provide Population Tubulin-Different-Phenotype (%) for all items below, preserving their order.
1. COc1cccc2cc(-c3nc([C@H]4CC[C@H](C(=O)O)CC4)n4ncnc(N)c34)[nH]c12
2. O=C1N/C(=N/c2ccccc2F)S/C1=C\c1ccc(C(=O)O)cc1
3. Cl.O=C(c1ccc(Nc2nccc(-c3cc4ccccc4s3)n2)cc1)N1CCC(N2CCCC2)CC1
4. CCN1CCN(Cc2ccc(Nc3ncc(F)c(-c4cc(F)c5nc(C)n(C(C)C)c5c4)n3)nc2)CC1.CS(=O)(=O)O
5. CNc1cc(Oc2cc(C(=O)Nc3cc(N4CCN(C)CC4)cc(C(F)(F)F)c3)ccc2C)ncn1
6. COc1ccc(S(=O)(=O)N(CCO)c2ccccc2CN(C)C/C=C/c2ccc(Cl)cc2)cc1.O=P(O)(O)O
7. CN[C@@H]1C[C@H]2O[C@@](C)([C@@H]1OC)n1c3ccccc3c3c4c(c5c6ccccc6n2c5c31)C(=O)NC4
8. CCCn1c(=O)c2[nH]c(-c3cnn(Cc4cccc(C(F)(F)F)c4)c3)nc2n(CC)c1=O

Ans.
[29, 23, 13, 87, 51, 98, 91, 30]

Parameters: items (list). Returns: Population Tubulin-Different-Phenotype (%) for each item.
1. NC(=O)c1cccc(-c2cc(Nc3ccc(OC(F)(F)F)cc3)ncn2)c1
2. C=C1/C(=C\C=C2/CCC[C@]3(C)[C@@H]([C@H](C)/C=C/[C@H](C)C(C)C)CC[C@@H]23)C[C@@H](O)C[C@@H]1O

Ans.
1. 44
2. 14

Field: Population Tubulin-Different-Phenotype (%). Fill in for each record below.
1. Cc1ccc(C(=O)Nc2cccc(C(F)(F)F)c2)cc1Nc1nc(-c2cccnc2)nc2c1cnn2C
2. CN(C)C(=O)C(CCN1CCC(O)(c2ccc(Cl)cc2)CC1)(c1ccccc1)c1ccccc1.Cl [LOPERAMIDE HYDROCHLORIDE]
3. CCn1cc(-c2ccnc3[nH]c(-c4cccc(CN(C)C)c4)cc23)c(-c2ccc(NC(=O)N(C)C)cc2)n1

Ans.
16
62
18

Give Population Tubulin-Different-Phenotype (%) for each of the items listed below.
1. CCN1CCN(c2ccc(Nc3cc(N(C)C(=O)Nc4c(Cl)c(OC)cc(OC)c4Cl)ncn3)cc2)CC1
2. CCOC(=O)c1c(C)[nH]c2ccc3c(c12)CN1CCc2cc(OC)ccc2C1O3 (configuration not stated)
3. Cc1cc(C)c(S(=O)(=O)N(Cc2ccc(-c3cccc(S(C)(=O)=O)c3)cc2)Cc2ccc(C(F)(F)F)o2)c(C)c1
4. O=C(Nc1ccc(-n2nc(-c3cccnc3)cc2C(F)(F)F)cn1)c1ccc(-c2ccccc2)c(F)c1
5. CCCS(=O)(=O)Nc1ccc(F)c(C(=O)c2c[nH]c3ncc(Cl)cc23)c1F
6. CN([C@@H](Cc1ccc(OS(=O)(=O)c2cccc3cnccc23)cc1)C(=O)N1CCN(c2ccccc2)CC1)S(=O)(=O)c1cccc2cnccc12
7. O=C1NC(=O)C(c2cnc3ccccn23)=C1c1cn2c3c(cc(F)cc13)CN(C(=O)N1CCCCC1)CC2
8. O=C(Cc1ccc(-c2ccc(OCCN3CCOCC3)cc2)cn1)NCc1ccccc1

Ans.
[70, 35, 32, 37, 23, 100, 18, 10]

Qu. Look at this compound and give its reported Population Tubulin-Different-Phenotype (%). `Cl.O=c1c2cccn2c2ccccc2n1CCCN1CCC(c2ccc(Cl)cc2)CC1`
Ans. 19
